Biological target: Influenza virus A/Indonesia/5/2005/PR8-IBCDC-RG2 (H5N1) (Influenza A virus A/Indonesia/5/2005/PR8-IBCDC-RG2 (H5N1))
Assay: cell-based or functional assay
Entries and their Neutralizing activity (%) at 100 µg/ml values follow.
Attribute Measured: Neutralizing activity (%) at 100 µg/ml

Binder | Attribute Measured | Value Measured
Group 57 representative clone F083-103, Fab-PP-type antibody (Fab, V domains shown) VH: QVQLQQSGADVKKAGSSVKVSCKASGRTFGNYAISWVRQAPGQGLEWMGGITPIFGAANYAQKFQGRVTISADLSTRMVYMDLSSLRSDDTAFYYCAGHPTYHYGSAMDYWGQGTLVTVSS VL: QSVLTQPPSVSAAPGQKVTITCSGSSSNIGNNYVSWYQQLPGTAPKLLISEGSNRPSGIPDRFSGSKSGTSATLGITGLQTGDEATYYCATWDDSLSVVLFGGGTRLTVLS | Neutralizing activity (%) at 100 µg/ml | 30
Group 38 representative clone F082-338, Fab-PP-type antibody (Fab, V domains shown) VH: QVQLQESGAEVKKPGSSVKVSCKASGGPFRSHAISWVRQAAGQGLEWMGGITAVFGTANYAQKFQGRVTITADESTNIVSMELSSLRSEDTAIYYCARSLGYHTQYNGMDVWGQGTTVTVSS VL: DVVMTQSPSSVSASVGDRVTITCRASQGISSWLAWYQQKPGKAPKLLIYAASSLQSGVPSRFSGSGSGTDFTLTISSLQPEDFATYYCQQANSFPITFGQGTRLEIK | Neutralizing activity (%) at 100 µg/ml | 67.1
Group 47 representative clone F083-308, Fab-PP-type antibody (Fab, V domains shown) VH: QVQLVQSGAEVKKPGSSVKVSCKASGGIFRSHAISWVRQAPGQGLEWMGGIIAIFGTTHYAQQFQGRVTITADESTSTVYMELSTLRSEDTAVYYCARGPNYFESYFDNWGQGTLVTVSS VL: EIVLTQSPATLSLSPGERATLSCRASQTISSYLAWYQQKPGQAPRLLIYGASNRATGIPARFSGSGSGTDFTLTINSLEPEDFAVYYCQQRSSWPPITFGQGTRLEIK | Neutralizing activity (%) at 100 µg/ml | 29.4
Group 58 representative clone F083-307, Fab-PP-type antibody (Fab, V domains shown) VH: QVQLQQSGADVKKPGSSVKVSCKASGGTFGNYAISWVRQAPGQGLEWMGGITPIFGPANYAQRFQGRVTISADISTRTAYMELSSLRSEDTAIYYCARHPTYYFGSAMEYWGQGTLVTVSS VL: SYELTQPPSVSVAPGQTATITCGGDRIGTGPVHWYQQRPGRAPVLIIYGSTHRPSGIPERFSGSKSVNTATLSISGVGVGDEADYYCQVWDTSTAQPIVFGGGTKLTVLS | Neutralizing activity (%) at 100 µg/ml | 28.8
Group 62 representative clone F083-349, Fab-PP-type antibody (Fab, V domains shown) VH: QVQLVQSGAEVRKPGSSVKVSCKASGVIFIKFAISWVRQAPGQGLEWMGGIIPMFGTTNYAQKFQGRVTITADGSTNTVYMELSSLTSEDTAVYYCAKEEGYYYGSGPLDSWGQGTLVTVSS VL: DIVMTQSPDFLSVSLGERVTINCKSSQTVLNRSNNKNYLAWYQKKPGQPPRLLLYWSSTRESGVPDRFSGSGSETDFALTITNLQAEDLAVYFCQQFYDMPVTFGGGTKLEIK | Neutralizing activity (%) at 100 µg/ml | 40.2
